// values below are reported Potency
system name: Cruzipain (Trypanosoma cruzi) (UniProt P25779)
Sequence (P25779 123-467 limits assumed): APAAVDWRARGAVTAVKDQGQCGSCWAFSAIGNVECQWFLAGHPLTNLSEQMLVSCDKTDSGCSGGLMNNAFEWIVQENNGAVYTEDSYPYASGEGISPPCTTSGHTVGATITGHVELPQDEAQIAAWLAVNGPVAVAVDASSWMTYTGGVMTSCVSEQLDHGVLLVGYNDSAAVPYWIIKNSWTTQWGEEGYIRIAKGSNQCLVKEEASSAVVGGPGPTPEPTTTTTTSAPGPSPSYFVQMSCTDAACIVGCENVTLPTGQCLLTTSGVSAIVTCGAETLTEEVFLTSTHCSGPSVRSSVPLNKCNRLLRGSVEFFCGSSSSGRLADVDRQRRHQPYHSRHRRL
test description: qHTS Assay for Promiscuous and Specific Inhibitors of Cruzain (with detergent); also: nearly all actives have a fitted effect of over 40% in size; also: potency is read from the fitted curve at half-maximal effect
protocol conditions: purified cruzain, Z-FR-AMC fluorescence, 0.01% Triton
Among all 200,000 compounds or so, about 860 (0.43%) were called active. Many of the other results were omitted from the sample, so actives are more common in it than they were.

# smiles data, system name, Potency
measured = [
    ("O=C(COc1ccccc1)NCCc1nc2ccccc2[nH]1", "Cruzipain (Trypanosoma cruzi) (UniProt P25779)", "15.8 µM (active)"),
    ("CC(C)Oc1c(Br)cc(Br)cc1/C=N/NC(N)=S", "Cruzipain (Trypanosoma cruzi) (UniProt P25779)", "0.708 µM (active)"),
    ("CC(C)C[C@H](NC(=O)[C@@H]1O[C@H]1C(=O)O)C(=O)NCCCCN=C(N)N", "Cruzipain (Trypanosoma cruzi) (UniProt P25779)", "0.0562 µM (active)"),
    ("CC(=O)c1c(O)c(C)c(O)c(Cc2c(O)c3c(c(C(=O)/C=C\\c4ccccc4)c2O)OC(C)(C)C=C3)c1O", "Cruzipain (Trypanosoma cruzi) (UniProt P25779)", "31.6 µM (active)"),
    ("CCn1c(=N)c(S(=O)(=O)c2ccc(F)cc2)cc2c(=O)n3ccccc3nc21", "Cruzipain (Trypanosoma cruzi) (UniProt P25779)", "22.4 µM (active)"),
    ("COc1cc(NC(=S)NCCSc2ccc(C)cc2)cc(OC)c1", "Cruzipain (Trypanosoma cruzi) (UniProt P25779)", "2 µM (active)"),
]

---

system name: Cruzipain (Trypanosoma cruzi)
test description: qHTS Assay for Promiscuous and Specific Inhibitors of Cruzain (with detergent); also: nearly all actives have a fitted effect of over 40% in size; also: potency is read from the fitted curve at half-maximal effect
protocol conditions: purified cruzain, Z-FR-AMC fluorescence, 0.01% Triton
The campaign covered roughly 200,000 compounds. About 860 (0.43%) were called active. The sample as a whole holds a higher share of actives than the screen did.
value type: Potency

# smiles data, reading
measured = [
    ("Cc1cccc(C(=O)NCCc2nc3ccccc3n2Cc2ccccc2Cl)c1", "8.91 µM (active)"),
    ("CCCCCn1c(CCNC(=O)c2ccc(F)cc2)nc2ccccc21", "4.47 µM (active)"),
    ("O=C(COC(=O)[C@H](Cc1ccccc1)NC(=O)c1cccs1)Nc1cc(F)ccc1F", "20 µM (active)"),
    ("O=C1CCCN1CCCNc1ncnc2c1[nH]c1ccccc12", "15.8 µM (active)"),
    ("O=C(NCc1ccccn1)c1ccc2nc(-c3ccco3)c(-c3ccco3)nc2c1", "22.4 µM (active)"),
    ("CNC(=O)c1cc2c(ccc3ccccc32)oc1=N", "28.2 µM (active)"),
]

---

system name: Cruzipain (Trypanosoma cruzi) (UniProt P25779)
test description: qHTS Assay for Promiscuous and Specific Inhibitors of Cruzain (with detergent); also: nearly all actives have a fitted effect of over 40% in size;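 as to max response, negative = inhibition: plate controls were neutral wells for no effect and buffer without enzyme for full effect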
protocol conditions: purified cruzain, Z-FR-AMC fluorescence, 0.01% Triton
Out of some 200,000 compounds screened, about 860 (0.43%) were called active. What follows is part of a selection rich in actives, with near analogues and random picks from the rest.
// values below are reported max response, negative = inhibition
value type: max response, negative = inhibition (%)

# molecule, display unit, reading
data = [
    ("COc1ccc(-c2noc(-c3ccc(N4CCN(c5ccccc5)CC4)c([N+](=O)[O-])c3)n2)cc1OC", "%", -4.6),
    ("O=C(NCC1CCCO1)/C(=C\\c1ccco1)NC(=O)c1ccccc1 (stereo not given)", "%", -1.92),
    ("COc1cc(OC)c(NC(=O)c2cc(S(=O)(=O)N3CCCC3)cn2C)cc1Cl", "%", -0.944),
    ("CC(=O)c1c(O)c(C)c(O)c(Cc2c(O)c3c(c(C(=O)/C=C/c4ccccc4)c2O)OC(C)(C)C=C3)c1O", "%", -22.4),
    ("Cc1ccc(C)c(NC(CC(=O)c2ccccc2)C(=O)OCC(=O)c2cccs2)c1 (stereo not given)", "%", -3.94),
    ("Cc1ccc(-n2c(SCC(=O)Nc3ncc(Cl)cc3Cl)nc3ccccc32)cc1", "%", 0.0613),
    ("COc1ccc(OCCCn2c(C)nc3cc(C)c(C)cc32)cc1", "%", -3.67),
    ("Cc1ccc(-c2cn3c(n2)sc2cc(C(=O)NCc4cccs4)ccc23)c(C)c1", "%", -2.89),
    ("Cc1ccc(F)c(NC(=O)CCc2ccccc2)c1", "%", 2.16),
    ("COc1ccc(CNC(=O)c2cc3cccc(OC)c3oc2=O)cc1", "%", -0.986),
]

---

system name: Cruzipain (Trypanosoma cruzi) (UniProt P25779)
test description: qHTS Assay for Promiscuous and Specific Inhibitors of Cruzain (with detergent); also: nearly all actives have a fitted effect of over 40% in size;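 as to max response, negative = inhibition: plate controls were neutral wells for no effect and buffer without enzyme for full effect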
protocol conditions: purified cruzain, Z-FR-AMC fluorescence, 0.01% Triton
The campaign covered roughly 200,000 compounds. About 860 (0.43%) were called active. The list comes from a sample in which actives are over-represented; it also holds close analogues and randomly drawn compounds.
// values below are reported max response, negative = inhibition

# molecule, system name, display unit, max response, negative = inhibition
measured = [
    ("Cc1ccc(CSc2nc3ccsc3c(=O)n2CCC(C)C)cc1", "Cruzipain (Trypanosoma cruzi) (UniProt P25779)", "%", -1.1),
    ("CC(=O)N1CCCc2cc(S(=O)(=O)N3CCC(C(=O)NC4CCCCC4)CC3)ccc21", "Cruzipain (Trypanosoma cruzi) (UniProt P25779)", "%", -0.0735),
    ("CC(=O)c1cccc(Nc2ccc3cc(S(=O)(=O)N4CCC(C)CC4)ccc3n2)c1", "Cruzipain (Trypanosoma cruzi) (UniProt P25779)", "%", -2.76),
    ("CCc1ccccc1NC(=O)Cc1ccc(NC(=O)N2CCCCc3ccccc32)cc1", "Cruzipain (Trypanosoma cruzi) (UniProt P25779)", "%", -5.61),
    ("COc1ccc(-n2c(=O)c3c(c4cc(OC)ccc4n3C)n(Cc3cccc(C)c3)c2=O)cc1", "Cruzipain (Trypanosoma cruzi) (UniProt P25779)", "%", -1.25),
    ("CCOC(=O)C1CCN(C(c2ccc(F)cc2)c2sc3nc(-c4ccco4)nn3c2O)CC1 (stereo unspecified)", "Cruzipain (Trypanosoma cruzi) (UniProt P25779)", "%", -3.73),
    ("COc1ccc(Cn2ccn(CC(=O)Nc3cc(C)ccc3C)c(=O)c2=O)cc1", "Cruzipain (Trypanosoma cruzi) (UniProt P25779)", "%", -6.93),
    ("CCc1ccc(NC(=O)c2cnc3c(-c4ccccc4)c(C)nn3c2C)cc1", "Cruzipain (Trypanosoma cruzi) (UniProt P25779)", "%", -6.46),
    ("Cc1ccc(-c2cnc(C3CC3)o2)cc1S(=O)(=O)Nc1cccc(C)c1C", "Cruzipain (Trypanosoma cruzi) (UniProt P25779)", "%", -6.32),
    ("CC(=O)NC1=NN(C(C)=O)C(C)(c2ccc(C)cc2)S1 (stereo unspecified)", "Cruzipain (Trypanosoma cruzi) (UniProt P25779)", "%", -0.836),
    ("Cc1cccc(N2CCN(C(=O)CCn3c(=O)c4cccn4c4cccnc43)CC2C)c1 (stereo unspecified)", "Cruzipain (Trypanosoma cruzi) (UniProt P25779)", "%", -4.9),
    ("Cc1ccc(-c2c3c(=O)n(C)c(=O)n(C)c3cn2-c2ccccc2O)cc1", "Cruzipain (Trypanosoma cruzi) (UniProt P25779)", "%", 0.548),
    ("CCOC(=O)c1cccc(NC(=O)c2cc(CN3CCCC3)on2)c1", "Cruzipain (Trypanosoma cruzi) (UniProt P25779)", "%", -1.68),
    ("O=C(CSc1nc2nccnc2c(=O)n1CCc1c[nH]c2ccccc12)Nc1ccccc1F", "Cruzipain (Trypanosoma cruzi) (UniProt P25779)", "%", -2.4),
    ("CSc1nn(Cc2cccc(C)c2)c(N)c1S(=O)(=O)c1ccccc1", "Cruzipain (Trypanosoma cruzi) (UniProt P25779)", "%", -5.62),
    ("COc1ccccc1CNC(=O)c1ccc(CS(=O)c2ccccc2Cl)o1 (stereo unspecified)", "Cruzipain (Trypanosoma cruzi) (UniProt P25779)", "%", -8.94),
    ("CC(=O)CCC(=O)c1ccc2ccccc2c1", "Cruzipain (Trypanosoma cruzi) (UniProt P25779)", "%", -3),
    ("Cc1cc(-c2ccc(C)c(S(=O)(=O)N3c4ccccc4CC3C)c2)on1 (stereo unspecified)", "Cruzipain (Trypanosoma cruzi) (UniProt P25779)", "%", -1.84),
    ("COc1ccccc1-n1c(-c2ccc(C)cc2)cn2c3c(=O)n(C)c(=O)n(C)c3nc12", "Cruzipain (Trypanosoma cruzi) (UniProt P25779)", "%", 0.477),
    ("Cc1cccc(CNC(=O)c2cnc3sc(N4CCCCC4)nn3c2=O)c1", "Cruzipain (Trypanosoma cruzi) (UniProt P25779)", "%", 3.23),
    ("CC(C)(C)c1ccc(C(=O)Nc2ccc3c(c2)CCCN3C(=O)c2cccs2)cc1", "Cruzipain (Trypanosoma cruzi) (UniProt P25779)", "%", -4.1),
]
